The measurements presented in this section are drawn from ChEMBL document CHEMBL4184325.

- PROCEDURE SUMMARY: Drug metabolism in human liver microsomes treated with (S)-N-(4-Amino-6-methylene-5-(4-phenoxyphenyl)-7,8-dihydro-6H-pyrimido[5,4-b]pyrrolizin-7-yl)acrylamide after 3 hrs
- Format: ADME, microsome

{"COMPOUND": "C=CC(=O)N[C@@H]1Cn2c(c(-c3ccc(O)cc3)c3c(N)ncnc32)C1=C", "Drug metabolism": "Metabolite_Detected"}
{"COMPOUND": "C=C1c2c(-c3ccc(Oc4ccccc4)cc3)c3c(N)ncnc3n2C[C@H]1NC(=O)C(O)CO (some centres undefined)", "Drug metabolism": "Metabolite_Detected"}
{"COMPOUND": "C=CC(=O)N[C@@H]1Cn2c(c(-c3ccc(Oc4ccc(O)cc4)cc3)c3c(N)ncnc32)C1=C", "Drug metabolism": "Metabolite_Detected"}
{"COMPOUND": "C=C1c2c(-c3ccc(Oc4ccccc4)cc3)c3c(N)ncnc3n2C[C@H]1NC(=O)C=CO", "Drug metabolism": "Metabolite_Detected"}
